From: the NTF2 design screens of Basanta et al. (2020)

TEST_METHOD_NOTES: protease stability score; higher = more stable; yeast display proteolysis, trypsin and chymotrypsin;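 note: log10 excess protease needed over predicted unfolded state with 0 meaning unfolded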
Label 0 (no) if protease stability score falls below 0.6; label 1 (yes) in every other case.

• DERDLKEAIDNIRTNNFDELNKMADPNVKAVIGNKTIHGRETINKFLHRLSQQVDHVRIRHYHTRGDHLHVDFKVHFDGKDVKLRIVIRVNNGKITYIQIDVTSEEQLEELDEIVD = 1 (yes)
• DEDQNRKMEHALRKNDWTRLAEQADKDVKVHIGDKVLHGREEVLKYLKRFQENVDHIEIKRMEATGNKVTVEYDVNFDGTTLDVTFKMVVQNGTVEHMTFDFRSEEQEHEAKKAYG = 1 (yes)
• EEREVEEMQKILQHGDPKEFEDNMDPNADVEIGDQQYRGRETIAQVLQKFRDQIDHRHIEEVHIHGDHAVIDVVATVNGQDLKYIIVVKVENGKLKSARLQATDPRVKHRMQEVYE = 0 (no)
• DSHTIAKELMKTWQDAARNNDEDKLKELIDKDASASVGDKTFHGRESFARHVQEQARRADHLEVRLESMSINGDHIHLQFVVRYNVNGKESSDRYVVIFHKVNGKFRVRQIKQR = 1 (yes)
• DEEVVKLLLELMKAWRTGDRDKAVKLMDPNVEIQVGDTYIHGREQNREEIKRIKDEIRWELSVKSYNQHNGQARIDADVTINVDGHPTHYRVDIRAEATNGEVKKITYNVPEEVLEEVKR = 0 (no)
• DNEFREEVKKAIDTGDPLEMVRQADKDVEVHVGDKYWHGREQVEKLMTLWKEQVDHLHVDRITHEPGRVKVDAVAQFNGVEFRFNMVIHAHNGKIKSVQFKNTDEDVKKKLEKILD = 0 (no)
• DHQDARKVRKNFEDNNFESFKSMFDENAEVRVGDKELHGKENIRDQIRKEKEQIDHVQYRSFHVQGEKVDLKYEFQVNGRHIDVRASAELKNGRIKTHSVEVTTEEDKKLLKEVLQ = 0 (no)
• DEEELEKMAEKVIKMLRSGDPRQAVRMMDENAHVEYGDKTYHGREDAERAVKQWTDHFDKVRVVHVDVHNGTVNVDMEINHNGRVERYVVRVEVHNGRVKHLVVKSS = 1 (yes)

###

TEST_METHOD_NOTES: protease stability score; higher = more stable; yeast display proteolysis, trypsin and chymotrypsin;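 note: log10 excess protease needed over predicted unfolded state with 0 meaning unfolded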
RESULT_TYPE: protease stability score

- DEEEVSRILKKVLTAVRKNDPDTLMRLADKNARFHYGDRTYRGREQARRWMEDVRTHADHARINSFTVTGNKARADIRFDINGEERRVDMVIVVHNGKIHDLVVEDR: 1.3
- DEEKKRRVAQKIAKLVQTGDPRDVETMMRDDVRANYGDKEYHGRENVSTFADRQVKKVDHRHIESVKNSGEQLVVDMRFVINGHNVRFRISFEFHNGKIKQANFDPKAIEHQDS: -0.176
- DHEEMEKIAEEIIDILRTNDPDQMERLADENVRVRIGDKEVHGRESVSHAAQQLHDRVDHFDLKSWRRNGDKFQFEFVEHFNGQSRNVQVEMRFENGKIRHIVYTSR: 0.226
- DEQKLAEDLAKEIIKALETGNSHRLHELMDENARLRVGDKDYTGDHRIAKWMKHKRDRVDRVEATIQEIDADGDKVTIVIEIVFDHNGRRERVIVDARAEIRGDKVRMKELHWS: -0.101
- DEDDLRRAQKDLQQNDFHKIARDADENVRVRIGDTTYHGRETLISFLKEMQDRADHVSIKHISVEGDKITADFEMQVDGKTDTFDLFIVVHNGRYQHVHFEVRSEDFSKFMREIES: 1.02
- DDQEDAEKAARRFNKIVNENNFDDLLNQFDPNARIQVGDKQYHGRSEISKFMQKWKRQIDHLEAHLKDVKVDNGRIDVKFKFQFHKNGTRVDRDMSLDARRQGDQINIQELHLG: 0.198
- DDELQHQVERFLTNIEHGDPDKIQRQVDKDVNARVGDETLHGSDQLKDTWHDTQRQMRFSFHVTKYDAREGHVDITAHITMDRNGKPESRQVRVRFNINNGKLREVDMQLRG: 1.04
- DEERMLKVAETVIRAVRNGNADKAVKYIDEGGEATFGDTKLKGPEHIYEYVKKFKDQGIEVHYKEEHKEGDKVTVHTQAHLGDATADFEVHYQVKGDKLDRMEVRMDKEQLKKFRDS: -0.347
- DEHSDERRLQTAMHALEQNDPDEIKRQMDKDASARYGEKDVTGRDNAKKAASDFKKKVDHVEIKHYDIQGDKLHAKAKVNINGQHIEIIMVLVAHNGHVQRLQVDHG: 0.227
- DEHHAAKRLMDNLLQAMRTGDTDTLKKLADPNVRIDVGDKTYHGREQFLQWMKELVKHVDSVHVDIKRFTVDGNNATIDAEARRDVNGNDHSEKVSVVAEVSGDKMHLKEIQYR: 1.04
- EEEDTKLMKQYADAVNNNNPDELRRQADENVRFEVGDNVFHGRKEYIKDVERKLRNIRITMNVKSLTVEGDKVNVTFEERHNKNGKPETFTAKARAHFHNGRIHSIRYEKDG: 0.049
- DDEELQELVKVIQDNDKDRWRENIDKDARVRYGDKQWEGRNEVDKLMRELLEKADHIQFNSIHVQGNSIVVDVNINVNGKELDVIIEMEVRDGRIKHVKFQWRNEELHRIMDEILS: 0.879
- DEEEQNKIAETAAKAVASGDEKRLVDLADKHVKVHYGDKDLRGKEAADTLAHDLKRQVDNIKVDTVHAHNGRANADVEVRVNGKKVRYQVQVVVTNGTIDRVQLDPDMVRDHES: 0.101
- DDTRKAKELADRIVKAIKHGDEEYYERLVDKDVHADVGDRTVRGSETLVNTFQHEVEKADHIDAKVRSVSAHNGKIHISITVVVDVNGQQNSKEYTVIANTSNGRVRVEQINFK: 0.454
- DEDVKELAEKYWKVVKEGNPHEVKKMVDPNVKFNVGEQHIHGREEVARQVSKENREIRINYQLRDVKVHNGRVDVTADLEEEHNGKPETNKVKAHFVFRNGRVQTLSQTNKK: -0.031
- DKELRHSWEDQLRAEEEGDENRLRELIDPNASFVVGDKSIHGREQFADDMRRKLTEMRVEIKSYSVHAHNGHLDIKVHRRVNHDGEPKEDTYRADVQADNGRIVRVTIQSDG: -0.652
- DEEAEKRFEELMENRKTGNEHDVSEYADPNVTARIGDHEVRGREQLHDLQRKEKEEMRVDIKDYRLDFNGDTVRVEVHLEDEHNGRPRDRHQSNSFRWQNGKLKELHIRSDK: -0.353
- DEEAHKVAESFIKAYSNGDEDKLKKNVDPNARIQIGDKYIHGMDTFVKEQRKRREQSRYHMSITHVDVQGNEVDVRFKAESEHDGQPHTNRMSVNFTFHNGNIKNVDIQYEP: -0.307
- DEEEAKKVVDQAVKYFQNGDAEKLRDLGKEGVKYRVADVEAHGPEVVLKAVERLKRQGVKIQYRKVEVKGDTVTTQLDYQQGDRTFTVTIEAEVKGGKIDRVEADANEDAKKIVKHG: 0.172

###

TEST_METHOD_NOTES: protease stability score; higher = more stable; yeast display proteolysis, trypsin and chymotrypsin;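 note: log10 excess protease needed over predicted unfolded state with 0 meaning unfolded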
RESULT_TYPE: protease stability score

* DEDKHAKRVMENLTRAMNQGDKRRAADMVDPNVRLVIGDKEYHGRHQFRRAIKELVDRADHIEIDVRDVKTKNGRVQAHAHVEATYNGKKNDFKMVAEVEVQGENVVVHQITLK | 1.13
* DDEKRKDILRKIKENWKRNDHDFFKDMADPNVRAKVGDKLLHGREELEKELREFKKRADHVEIKHVDVTGDNAEVEADIDINGQKRVMVFQVEVHNGKIKHIELDPDDQRKVQK | 0.145
* DEELLERIKRIMHSGNFTELANQMDKDAKIIIGDKVLHGREQVEEWYDHLEREVDHVEVHTMTIHNGHLTVHMRMTINGKTFKVIMVIEVHNGRVKRVEVRVTDPNVQKWLKSILQ | 1.26
* DPKKLYKVAIRVVRAAVSGDVEKVVKMYKPDGKLTLGDQELRGREQIKKYADKFYRKGKRFQADHIRVTGNRVEVIMKFTLGGQTVTFQFYIKLKDDQVDEYEFRFNEEAEKMMRTG | 0.276
* EEHMEDSFRKWKDNLRTNDEKSLEKMADPNATFDVGDKRFRGMHKYVHDLVNTLRSMRVDIKINSIDVQGDKIKARAQATVYHNGRPQRYTFSFEIKINNGHIQRLVRKDDQ | -0.035
* DDEMIRVYREMQKALQDNDPERAKELMDPNAKLRYGDKVFHGREEFAKDMERRHHESRVQIRHLKVEDQGEKAVARFNEVNNSNGRPNSKSVSVELEAHNGKLVHVRAQDTK | -0.172
* DERKQHEVAEKVAKNFVDGNPSEFVKNMDPNAEVVIGDKTVTGREDIHRLVKDFHDKIDHIELKDLKVKNGRIEIIFQADNNGHKRQYRADVKANNGRMTTFEVREQ | 0.927
* DDTAIRIFEELQKAVENGDEREVQENLDEDAKIEYGNRTLHGREKAAKDYKRMHDQMEFTYDMKHFTVQGDKARLKVEYKATVNGKPYSDSVDVEVKIKNGKIKYIRFQFDEHKQRERDS | 0.894
* DEEWEETMTRLVKTGDFQSLVRLAPEDVKYVVGEKRIHGREHASEFAKKLTEQIDRIQVKEMHVSGDRVRADFELEFNGRKLKAVLVVKIHGDKVREVMIEVTDEHDEDILREIDD | 0.8
